- ASSAY_OVERVIEW: NPC library primary testing for decreased DLD-1 cell viability via CellTiter-Glo (AID 1117346)
- EXPERIMENTAL_CONTEXT: DLD-1 viability, CellTiter-Glo luminescence; at 20 µM (top of the series)
Activity calls are given as the source filed them.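 Rule for the calls: active = compounds that lower survival of DLD-1 colon cancer cells in the luminescence readout, no cutoff given; inactive = the rest.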
Can you answer with just one of these options? class 1 for active, class 0 for inactive

Answered examples (3):
In [3]: df
Out[3]:
                                   compound  category
0  Cc1scc2c1N(C(=O)CN1CCN(C)CC1)c1ccccc1NC2=O   class 1
1  CCN1CCC[C@H]1CNC(=O)c1c(O)c(Cl)cc(Cl)c1OC   class 0
2  C[C@H](NC(CCc1ccccc1)C(=O)O)C(=O)N1CCC[C@H]1C(=O)O (some centres not stated)   class 0

Any idea what this test logged for CN(C)/N=N/c1nc[nH]c1C(N)=O ?
class 0

Any idea what this test logged for CCN(CC)CCOC(=O)C(Cc1cccc2ccccc12)CC1CCCO1 (configuration not stated) ?
class 0

Any idea what this test logged for Oc1ccc(Cl)cc1Cc1cc(Cl)ccc1O ?
class 1

---

- Test system: Hepatitis C virus NS3 helicase
- ASSAY_OVERVIEW: blockers of NS3h binding to DNA – biochemical, fluorescence polarization, NIH Clinical Collection, primary screen (AID 743270)
- EXPERIMENTAL_CONTEXT: NS3 helicase binding to Cy5-dT15 DNA, hits give high values, concentration not given here
Could you please report measured inhibition for the items listed next?
One number for each entry, in %.

# annotated cases, reported inhibition shown
In [3]: df
Out[3]:
                                   compound  readout_number
0          Nc1nc2c(ncn2CCC(CO)CO)c(=O)[nH]1            2.77
1  CN(Cc1cnc2nc(N)nc(N)c2n1)c1ccc(C(=O)N[C@@H](CCC(=O)O)C(=O)O)cc1            1.19
2               CC(=O)NS(=O)(=O)c1ccc(N)cc1              -5
3  CCCc1nc(C)c2c(=O)[nH]c(-c3cc(S(=O)(=O)N4CCN(CC)CC4)ccc3OCC)nn12           -13.3
4     CNS(=O)(=O)Cc1ccc2[nH]cc(CCN(C)C)c2c1            5.94
5   CCOC(=O)c1ncn2c1CN(C)C(=O)c1cc(F)ccc1-2            1.98
6  COC(=O)C1=C(C)NC(C)=C(C(=O)OC(C)C)C1c1cccc2nonc12 (stereo unspecified)            6.73
7                  CNCCCCOc1ccccc1Cc1ccccc1           -4.36
8            Cc1[nH]c(=O)c(C#N)cc1-c1ccncc1           -4.36
9      Cc1[nH]cnc1CN1CCc2c(c3ccccc3n2C)C1=O           -8.32

Please give inhibition for each item listed below.
1. COc1cc(C)c(Cc2cnc(N)nc2N)cc1OC
2. Cc1ccnc2c1NC(=O)c1cccnc1N2C1CC1
3. CC(N)C12CC3CC(CC(C3)C1)C2 (stereo unspecified)
4. COc1ccccc1OCC(O)CN1CCN(CC(=O)Nc2c(C)cccc2C)CC1 (stereo unspecified)
5. CNNCc1ccc(C(=O)NC(C)C)cc1
6. CC1(C)O[C@@H]2C[C@H]3[C@@H]4C[C@H](F)C5=CC(=O)C=C[C@]5(C)[C@@]4(F)[C@@H](O)C[C@]3(C)[C@]2(C(=O)CO)O1

1.98
1.98
-2.27
-3.56
1.19
-1.36
